# System: Pseudomonas aeruginosa (ATCC 27883)
# PROTOCOL CONDITIONS: ATCC 27883
Non-standard residues stand in square brackets, D forms with d. Residues, ends and D or L forms follow the SMILES beside them. 2Nal = N[C@@H](Cc1ccc2ccccc2c1)C(=O)O; d2Nal = N[C@H](Cc1ccc2ccccc2c1)C(=O)O
MEASURE: MIC P. aeruginosa ATCC 27883
# include the unit after the value

MOLECULE	REPORTED VALUE
N=C(N)NCCC[C@H]1NC(=O)[C@@H](CCCNC(=N)N)NC(=O)[C@@H](CCCNC(=N)N)NC(=O)[C@@H](Cc2ccc3ccccc3c2)NC(=O)[C@@H](Cc2ccc3ccccc3c2)NC(=O)[C@@H](Cc2ccc3ccccc3c2)NC(=O)[C@@H](CCCNC(=N)N)NC1=O [IFX-081, c[arg-arg-arg-arg-naI-naI-naI]] (cyclo([dR][dR][dR][dR][d2Nal][d2Nal][d2Nal]))	50 µg/mL
NCCCC[C@@H]1NC(=O)[C@H](CCCCN)NC(=O)[C@H](CCCCN)NC(=O)[C@H](Cc2ccc3ccccc3c2)NC(=O)[C@H](Cc2ccc3ccccc3c2)NC(=O)[C@H](Cc2c[nH]c3ccccc23)NC(=O)[C@H](CCCCN)NC1=O [IFX-126, c[Lys-Lys-Lys-Lys-Trp-NaI-NaI]] (cyclo([2Nal][2Nal]KKKKW))	128 µg/mL

Inquiry: MIC P. aeruginosa ATCC 27883 lookup needed for N=C(N)NCCC[C@@H]1NC(=O)[C@H](CCCNC(=N)N)NC(=O)[C@H](CCCNC(=N)N)NC(=O)[C@H](Cc2ccc3ccccc3c2)NC(=O)[C@H](Cc2ccc3ccccc3c2)NC(=O)[C@H](Cc2ccc3ccccc3c2)NC(=O)[C@H](Cc2ccc3ccccc3c2)NC(=O)[C@H](CCCNC(=N)N)NC1=O [IFX-006, c[Arg-Arg-Arg-Arg-NaI-NaI-NaI-NaI]] (cyclo([2Nal][2Nal][2Nal][2Nal]RRRR)) , thanks.
Reply text: 50 µg/mL

====

# System: Streptococcus pneumoniae ATCC 51938
# PROTOCOL CONDITIONS: S. pneumoniae ATCC 51938
Non-standard residues stand in square brackets, D forms with d. Residues, ends and D or L forms follow the SMILES beside them. Dip = N[C@H](C(=O)O)C(c1ccccc1)c1ccccc1; 2Nal = N[C@@H](Cc1ccc2ccccc2c1)C(=O)O
MEASURE: Broad-spectrum activity S. pneumoniae (ATCC 51938)
Answer as a number with no unit attached.

MOLECULE	REPORTED VALUE
N=C(N)NCCC[C@@H]1NC(=O)[C@H](CCCNC(=N)N)NC(=O)[C@H](C(c2ccccc2)c2ccccc2)NC(=O)[C@H](Cc2c[nH]c3ccccc23)NC(=O)[C@H](C(c2ccccc2)c2ccccc2)NC(=O)[C@H](CCCNC(=N)N)NC1=O [IFX-021, c[Arg-Arg-Arg-Dip-Trp-Dip]] (cyclo([Dip]RRR[Dip]W))	25

Here is another molecule to look at.
Inquiry: Field: Broad-spectrum activity S. pneumoniae (ATCC 51938) (Streptococcus pneumoniae ATCC 51938). Entry: N=C(N)NCCC[C@@H]1NC(=O)[C@H](CCCNC(=N)N)NC(=O)[C@H](Cc2ccc3ccccc3c2)NC(=O)[C@H](Cc2ccc3ccccc3c2)NC(=O)[C@H](CCCNC(=N)N)NC(=O)[C@H](CCCNC(=N)N)NC(=O)[C@H](Cc2ccc3ccccc3c2)NC1=O [IFX-019, c[Arg-Arg-NaI-NaI-Arg-Arg-NaI]] (cyclo(R[2Nal]RR[2Nal][2Nal]R))
Reply text: 12.5
